experimentalSystem: T1, Cynomolgus CD3 on Cyno CD3+ Jurkat cells (cynomolgus, UniProt Q95LI5 22-198)
T1 construct: whole, on cells; CD3 on cells; also called cCD3
T1 sequence (Q95LI5 22-198): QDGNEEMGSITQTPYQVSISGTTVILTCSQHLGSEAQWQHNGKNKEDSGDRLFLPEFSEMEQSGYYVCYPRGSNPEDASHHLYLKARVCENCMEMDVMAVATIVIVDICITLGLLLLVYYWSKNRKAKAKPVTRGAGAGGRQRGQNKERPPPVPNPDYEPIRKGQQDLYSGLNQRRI
experimentNotes: cell binding cCD3, fold over background
A collection of binders and their measured Cell Binding cCD3 (FOB)

binder	Cell Binding cCD3 (FOB)
ADI-45972 (antibody, V domains shown, also called Ab8) VH: QVQLVQSGAEVKRPGASVKVSCKASGFNIKDYYMHWVRQAPGQRLEWIGWIDLENANTVYDAKFQGRVTITRDTSASTAYMELSSLRSEDTAVYYCARDAYGRYFYDVWGQGTLVTVSS VL: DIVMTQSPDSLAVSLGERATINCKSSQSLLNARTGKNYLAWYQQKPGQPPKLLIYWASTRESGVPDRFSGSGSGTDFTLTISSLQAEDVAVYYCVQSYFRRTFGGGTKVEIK	45
ADI-45984 (antibody, V domains shown, also called Ab21) VH: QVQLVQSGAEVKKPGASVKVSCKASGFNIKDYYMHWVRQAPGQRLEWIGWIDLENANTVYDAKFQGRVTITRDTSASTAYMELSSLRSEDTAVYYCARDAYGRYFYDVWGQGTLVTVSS VL: DIVMTQSPDSLAVSLGERATINCKSSQSLLNARTRKNYLAWYQQKPGQPPKLLIYWASTRESGVPDRFSGSGSGTDFTLTISSLQAEDVAVYYCVQSYFRRTFGGGTKVEIK	92
ADI-45970 (antibody, V domains shown, also called Ab6) VH: QVQLVQSGAEVKKPGASVKVSCKASGFNVKDYYMHWVRQAPGQRLEWIGWIDLENANTVYDAKFQGRVTITRDTSASTAYMELSSLRSEDTAVYYCARDAYGRYFYDVWGQGTLVTVSS VL: DIVMTQSPDSLAVSLGERATINCKSSQSLLNARTGKNYLAWYQQKPGQPPKLLIYWASTRESGVPDRFSGSGSGTDFTLTISSLQAEDVAVYYCKQSYFRRTFGGGTKVEIK	68
